Can you tell me E. coli MIC for the items I'm about to list?
# Tested on: Escherichia coli (UTI89)
# assayProtocol: Antimicrobial kill (microdilution) assay, MIC/MBC by CFU count
# Assay type: cell-based
# conditionInfo: lowest concentration that inhibits the growth of 90% of the inoculation; 3 hours, 0.1×PBS
*: point of attachment. His tag = six-residue histidine tag at the N-terminus, N[C@@H](Cc1c[nH]cn1)C(=O)N[C@@H](Cc1c[nH]cn1)C(=O)N[C@@H](Cc1c[nH]cn1)C(=O)N[C@@H](Cc1c[nH]cn1)C(=O)N[C@@H](Cc1c[nH]cn1)C(=O)N[C@@H](Cc1c[nH]cn1)C(=O)*
Number only, in µM; omit the unit.

// returns reported E. coli MIC for input F:46-128: recombinant C-terminal RNase 7 fragment, amino acids 46 to 128, N-terminal His tag (protein, left off: small tags and cut ends, recombinant C-terminal RNase 7 fragment, amino acids 46 to 128, N-terminal His tag) EPFSSVAATCQTPKIACKNGDKNCHQSHGPVSLTMCKLTSGKYPNCRYKEKRQNKSYVVACKPPQKKDSQQFHLVPVHLDRVL 0.34

Any idea what its E. coli MIC is? The molecule is RNase7: recombinant full-length human Ribonuclease 7, amino acids 1-128 (SEQ ID NO: 1), N-terminal His tag (protein, listed as Homo sapiens, N-terminal His tag) KPKGMTSSQWFKIQHMQPSPQACNSAMKNINKHTKRCKDLNTFLHEPFSSVAATCQTPKIACKNGDKNCHQSHGPVSLTMCKLTSGKYPNCRYKEKRQNKSYVVACKPPQKKDSQQFHLVPVHLDRVL 0.26

Entry F:30-128: recombinant C-terminal RNase 7 fragment, amino acids 30 to 128, N-terminal His tag (protein, left off: small tags and cut ends, recombinant C-terminal RNase 7 fragment, amino acids 30 to 128, N-terminal His tag) INKHTKRCKDLNTFLHEPFSSVAATCQTPKIACKNGDKNCHQSHGPVSLTMCKLTSGKYPNCRYKEKRQNKSYVVACKPPQKKDSQQFHLVPVHLDRVL : reported E. coli MIC = ? 0.52

Can you look up the measured E. coli MIC of F:30-97: recombinant middle RNase 7 fragment, amino acids 30 to 97, first four beta sheets, N-terminal His tag (protein, ends and bridges not checked, recombinant middle RNase 7 fragment, amino acids 30 to 97, first four beta sheets, N-terminal His tag) {His tag}-INKHTKRCKDLNTFLHEPFSSVAATCQTPKIACKNGDKNCHQSHGPVSLTMCKLTSGKYPNCRYKEKR for me? 0.44
